System: HEK-293T
Experiment notes: Multiplex assay against HEK293T
Type: toxicity, cell-based
Cond: human, 24 h, 1 µM, compound concentration 1 uM, replicate 1
For each record, check the reported Population Normal (%): if it is below 80% write condition met, else write condition not met.

Confirm or reject: Population Normal (%) of C=C1/C(=C\C=C2/CCC[C@]3(C)[C@@H]([C@H](C)/C=C/[C@H](C)C(C)C)CC[C@@H]23)C[C@@H](O)C[C@@H]1O [DOXERCALCIFEROL] lies strictly below 80% condition met

Confirm or reject: Population Normal (%) of COC(=N)c1nc2ccc3ncnc(Nc4ccc(OC)cc4F)c3c2s1 lies strictly below 80% condition not met

Confirm or reject: Population Normal (%) of O=C(Cc1ccc(-c2ccc(OCCN3CCOCC3)cc2)cn1)NCc1ccccc1 [TIRBANIBULIN] lies strictly below 80% condition not met

Confirm or reject: Population Normal (%) of Cc1cn(-c2cc(NC(=O)c3ccc(C)c(Nc4nccc(-c5cccnc5)n4)c3)cc(C(F)(F)F)c2)cn1 [NILOTINIB] lies strictly below 80% condition not met

* * *

Can you tell me Population Membrane Permeable-Phenotype (%) for the items I'm about to list?
System: Fibroblast
Experiment notes: Multiplex assay against human fibroblast
Format: toxicity, cell-based
Cond: 48 h, 1 µM, compound concentration 1 uM, replicate 1
Express the result in % but write the number alone.

What value of measured Population Membrane Permeable-Phenotype (%) is listed for O=C1NC(=O)C(c2cnc3ccccn23)=C1c1cn2c3c(cc(F)cc13)CN(C(=O)N1CCCCC1)CC2 [LY-2090314] ? 14

What value of measured Population Membrane Permeable-Phenotype (%) is listed for CN(C)C(=O)C(CCN1CCC(O)(c2ccc(Cl)cc2)CC1)(c1ccccc1)c1ccccc1.Cl [LOPERAMIDE HYDROCHLORIDE] ? 8

What value of measured Population Membrane Permeable-Phenotype (%) is listed for S=C(NCCCc1c[nH]cn1)NCCCN(Cc1ccc(Cl)c(Cl)c1)c1ccc(Br)cn1 ? 24

What value of measured Population Membrane Permeable-Phenotype (%) is listed for O=C(Nc1ccc(-n2nc(-c3cccnc3)cc2C(F)(F)F)cn1)c1ccc(-c2ccccc2)c(F)c1 [BI 2049] ? 40

What value of measured Population Membrane Permeable-Phenotype (%) is listed for O=C(Nc1ccc(Cl)cc1)Nc1cccc(-c2cccc(N3CCCC3)n2)c1 ? 33

What value of measured Population Membrane Permeable-Phenotype (%) is listed for Cc1cc(C)c(S(=O)(=O)N(Cc2ccc(-c3cccc(S(C)(=O)=O)c3)cc2)Cc2ccc(C(F)(F)F)o2)c(C)c1 ? 16

What value of measured Population Membrane Permeable-Phenotype (%) is listed for CCOc1cc2ncc(C#N)c(Nc3ccc(OCc4ccccn4)c(Cl)c3)c2cc1NC(=O)/C=C/CN(C)C [NERATINIB] ? 26

What value of measured Population Membrane Permeable-Phenotype (%) is listed for CCOc1cc(C(=O)N2CCC(N3CCN(C)CC3)CC2)ccc1Nc1ncc2c(n1)N(C1CCCC1)c1ccccc1C(=O)N2C ? 13

* * *

Tested on: U2OS
Experiment notes: Multiplex assay against U2OS
Assay type: toxicity, cell-based
Cond: human, 48 h, 10 µM, compound concentration 10 uM, replicate 1
For each record, check the reported Total Cell Count: if it is below 300 write rule met, else write rule not met.

Confirm or reject: Total Cell Count of Cl.O=C(c1ccc(Nc2nccc(-c3cc4ccccc4s3)n2)cc1)N1CCC(N2CCCC2)CC1 lies strictly below 300 rule met

Confirm or reject: Total Cell Count of CN1CCN(C(=O)C(C)(C)c2ccc(C(=O)Nc3cn4cc(-c5ccncc5)ccc4n3)cc2)CC1 lies strictly below 300 rule met

Confirm or reject: Total Cell Count of CN1CCC(=C2c3ccccc3CC(=O)c3sccc32)CC1.O=C(O)/C=C/C(=O)O [KETOTIFEN FUMARATE] lies strictly below 300 rule met

Confirm or reject: Total Cell Count of C=C1/C(=C\C=C2/CCC[C@]3(C)[C@@H]([C@H](C)/C=C/[C@H](C)C(C)C)CC[C@@H]23)C[C@@H](O)C[C@@H]1O lies strictly below 300 rule not met

Confirm or reject: Total Cell Count of O=C(Nc1ccc(Cl)cc1)Nc1cccc(-c2cccc(N3CCCC3)n2)c1 lies strictly below 300 rule met

Confirm or reject: Total Cell Count of S=C(NCCCc1c[nH]cn1)NCCCN(Cc1ccc(Cl)c(Cl)c1)c1ccc(Br)cn1 lies strictly below 300 rule met

Confirm or reject: Total Cell Count of O=C1N/C(=N/c2ccccc2F)S/C1=C\c1ccc(C(=O)O)cc1 lies strictly below 300 rule not met

Confirm or reject: Total Cell Count of O=C(Nc1ccc(-c2ccnc(Nc3ccc(N4CCOCC4)cc3)n2)cc1)[C@@H]1CCCN1 lies strictly below 300 rule met

* * *

System: HEK-293T
Experiment notes: Multiplex assay against HEK293T
Type: toxicity, cell-based
Cond: human, 24 h, 1 µM, compound concentration 1 uM, replicate 1
Can you tell me Population Fragmented Nuclei (%) for the items I'm about to list?
Express the result in % but write the number alone.

What value of measured Population Fragmented Nuclei (%) is listed for CCn1cc(-c2ccnc3[nH]c(-c4cccc(CN(C)C)c4)cc23)c(-c2ccc(NC(=O)N(C)C)cc2)n1 ? 13

What value of measured Population Fragmented Nuclei (%) is listed for COc1cccc2cc(-c3nc([C@H]4CC[C@H](C(=O)O)CC4)n4ncnc(N)c34)[nH]c12 ? 15

What value of measured Population Fragmented Nuclei (%) is listed for CCNc1cc(N[C@H]2CC[C@H](O)CC2)nc(Nc2ccc3c(ccn3Cc3ccccc3)c2)n1 ? 9

What value of measured Population Fragmented Nuclei (%) is listed for CCc1cccc(CC)c1NC(=O)c1nn(C)c2c1CCc1cnc(Nc3ccc(N4CCN(C)CC4)cc3OC)nc1-2 ? 18

What value of measured Population Fragmented Nuclei (%) is listed for O=C(Nc1cccnn1)N1CCC(=Cc2cccc(Oc3ccc(C(F)(F)F)cn3)c2)CC1 ? 16

What value of measured Population Fragmented Nuclei (%) is listed for CN1CCC(=C2c3ccccc3CC(=O)c3sccc32)CC1.O=C(O)/C=C/C(=O)O [KETOTIFEN FUMARATE] ? 12

* * *

Tested on: HEK-293T
Experiment notes: Multiplex assay against HEK293T
Assay type: toxicity, cell-based
Cond: human, 24 h, 10 µM, compound concentration 10 uM, replicate 2
For each record, check the reported Population Mitochondria Different-Phenotype (%): if it is below 20% write True, else write False.

Confirm or reject: Population Mitochondria Different-Phenotype (%) of COCC(=O)NC/C=C/c1ccc2ncnc(Nc3ccc(Oc4ccc(C)nc4)c(C)c3)c2c1 [CP-724714] lies strictly below 20% False

Confirm or reject: Population Mitochondria Different-Phenotype (%) of O=C(Nc1ccc(Cl)cc1)Nc1cccc(-c2cccc(N3CCCC3)n2)c1 lies strictly below 20% True

Confirm or reject: Population Mitochondria Different-Phenotype (%) of CCN(CC)S(=O)(=O)Nc1cccc(-c2ccc3c(NC(=O)C4CC4)n[nH]c3c2)c1 lies strictly below 20% False

Confirm or reject: Population Mitochondria Different-Phenotype (%) of CN(C)C(=O)C(CCN1CCC(O)(c2ccc(Cl)cc2)CC1)(c1ccccc1)c1ccccc1.Cl [LOPERAMIDE HYDROCHLORIDE] lies strictly below 20% False

Confirm or reject: Population Mitochondria Different-Phenotype (%) of CN1CCN(C(=O)C(C)(C)c2ccc(C(=O)Nc3cn4cc(-c5cc(C(C)(C)C)cc(C(C)(C)C)c5)ccc4n3)cc2)CC1 [T3-CLK-N] lies strictly below 20% False

Confirm or reject: Population Mitochondria Different-Phenotype (%) of COc1cc2ncnc(Nc3ccc(F)c(Cl)c3)c2cc1NC(=O)/C=C/CN1CCCCC1 [DACOMITINIB ANHYDROUS] lies strictly below 20% True

Confirm or reject: Population Mitochondria Different-Phenotype (%) of O=C(Nc1ccc(-c2ccnc(Nc3ccc(N4CCOCC4)cc3)n2)cc1)[C@@H]1CCCN1 lies strictly below 20% False

Confirm or reject: Population Mitochondria Different-Phenotype (%) of NC(=O)c1cccc(-c2cc(Nc3ccc(OC(F)(F)F)cc3)ncn2)c1 lies strictly below 20% True

* * *

System: Fibroblast
Experiment notes: Multiplex assay against human fibroblast
Assay type: toxicity, cell-based
Cond: 48 h, 10 µM, compound concentration 10 uM, replicate 1
Endpoint label: Population Mitochondria Different-Phenotype (%)
Express the result in % but write the number alone.

What value of measured Population Mitochondria Different-Phenotype (%) is listed for Cc1ccc(C(=O)Nc2cccc(C(F)(F)F)c2)cc1Nc1nc(-c2cccnc2)nc2c1cnn2C ? 18

What value of measured Population Mitochondria Different-Phenotype (%) is listed for CCc1cccc(CC)c1NC(=O)c1nn(C)c2c1CCc1cnc(Nc3ccc(C(=O)NC4CCN(C)CC4)cc3OC(F)(F)F)nc1-2 ? 15

What value of measured Population Mitochondria Different-Phenotype (%) is listed for CCCn1c(=O)c2[nH]c(-c3cnn(Cc4cccc(C(F)(F)F)c4)c3)nc2n(CC)c1=O [GS 6201] ? 4

What value of measured Population Mitochondria Different-Phenotype (%) is listed for Cl.O=c1c2cccn2c2ccccc2n1CCCN1CCC(c2ccc(Cl)cc2)CC1 ? 46

What value of measured Population Mitochondria Different-Phenotype (%) is listed for CN(C)C(=O)C(CCN1CCC(O)(c2ccc(Cl)cc2)CC1)(c1ccccc1)c1ccccc1.Cl [LOPERAMIDE HYDROCHLORIDE] ? 70
